target: T1, recombinant human VEGF165 (human, UniProt P15692-4 27-191); experiment: ka1; SPR Biacore T100, hVEGF165 on chip, Two State Reaction model
T1 construct: also called hVEGF165; rhVEGF165
T1 sequence (P15692 other isoform, or with tags, fused parts or gaps limits assumed): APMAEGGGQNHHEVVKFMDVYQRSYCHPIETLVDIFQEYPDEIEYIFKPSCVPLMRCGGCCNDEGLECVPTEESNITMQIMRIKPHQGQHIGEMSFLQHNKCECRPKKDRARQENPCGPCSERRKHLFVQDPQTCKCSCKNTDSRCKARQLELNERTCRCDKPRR
Metric: kon

Binder: VEGFBII023 (VHH, biparatopic bivalent VHH in one chain; also called VEGFBII23B04-40GS-10E07; VEGFBI023) EVQLVESGGGLVQTGDSLRLSCEVSGRTFSSYSMGWFRQAQGKEREFVVAISKGGYKYDSVSLEGRFTISKDNAKNTVYLQINSLKPEDTAVYYCASSRAYGSSRLRLADTYEYWGQGTQVTVSSGGGGSGGGGSGGGGSGGGGSGGGGSGGGGSGGGGSGGGGSEVQLVESGGGLVQAGGSLRLSCAASGRTFSNYAMGWFRQAPGKERVLVADISSSGINTYVADAVKGRFTISRDNAKNTVYLQMNSLKPEDTAVYYCAASAWWYSQMARDNYRYWGQGTQVTVSS
kon: 300000 M⁻¹ s⁻¹

// moving on: another record for kon
Lab book: kon of VEGFBII010 (VHH, bivalent VHH in one chain; also called VEGFBII23B04-35GS-23B04; homodimeric VEGFBII23B04) EVQLVESGGGLVQTGDSLRLSCEVSGRTFSSYSMGWFRQAQGKEREFVVAISKGGYKYDSVSLEGRFTISKDNAKNTVYLQINSLKPEDTAVYYCASSRAYGSSRLRLADTYEYWGQGTQVTVSSGGGGSGGGGSGGGGSGGGGSGGGGSGGGGSGGGGSEVQLVESGGGLVQTGDSLRLSCEVSGRTFSSYSMGWFRQAQGKEREFVVAISKGGYKYDSVSLEGRFTISKDNAKNTVYLQINSLKPEDTAVYYCASSRAYGSSRLRLADTYEYWGQGTQVTVSS noted as 450000 M⁻¹ s⁻¹
